# target-entity: human ether-à-go-go-related gene (hERG) potassium channel (human, UniProt Q12809);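 also: peak tail current of the secondary pulse compared with the same well before compound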
# Sequence (Q12809 whole entry, looked up): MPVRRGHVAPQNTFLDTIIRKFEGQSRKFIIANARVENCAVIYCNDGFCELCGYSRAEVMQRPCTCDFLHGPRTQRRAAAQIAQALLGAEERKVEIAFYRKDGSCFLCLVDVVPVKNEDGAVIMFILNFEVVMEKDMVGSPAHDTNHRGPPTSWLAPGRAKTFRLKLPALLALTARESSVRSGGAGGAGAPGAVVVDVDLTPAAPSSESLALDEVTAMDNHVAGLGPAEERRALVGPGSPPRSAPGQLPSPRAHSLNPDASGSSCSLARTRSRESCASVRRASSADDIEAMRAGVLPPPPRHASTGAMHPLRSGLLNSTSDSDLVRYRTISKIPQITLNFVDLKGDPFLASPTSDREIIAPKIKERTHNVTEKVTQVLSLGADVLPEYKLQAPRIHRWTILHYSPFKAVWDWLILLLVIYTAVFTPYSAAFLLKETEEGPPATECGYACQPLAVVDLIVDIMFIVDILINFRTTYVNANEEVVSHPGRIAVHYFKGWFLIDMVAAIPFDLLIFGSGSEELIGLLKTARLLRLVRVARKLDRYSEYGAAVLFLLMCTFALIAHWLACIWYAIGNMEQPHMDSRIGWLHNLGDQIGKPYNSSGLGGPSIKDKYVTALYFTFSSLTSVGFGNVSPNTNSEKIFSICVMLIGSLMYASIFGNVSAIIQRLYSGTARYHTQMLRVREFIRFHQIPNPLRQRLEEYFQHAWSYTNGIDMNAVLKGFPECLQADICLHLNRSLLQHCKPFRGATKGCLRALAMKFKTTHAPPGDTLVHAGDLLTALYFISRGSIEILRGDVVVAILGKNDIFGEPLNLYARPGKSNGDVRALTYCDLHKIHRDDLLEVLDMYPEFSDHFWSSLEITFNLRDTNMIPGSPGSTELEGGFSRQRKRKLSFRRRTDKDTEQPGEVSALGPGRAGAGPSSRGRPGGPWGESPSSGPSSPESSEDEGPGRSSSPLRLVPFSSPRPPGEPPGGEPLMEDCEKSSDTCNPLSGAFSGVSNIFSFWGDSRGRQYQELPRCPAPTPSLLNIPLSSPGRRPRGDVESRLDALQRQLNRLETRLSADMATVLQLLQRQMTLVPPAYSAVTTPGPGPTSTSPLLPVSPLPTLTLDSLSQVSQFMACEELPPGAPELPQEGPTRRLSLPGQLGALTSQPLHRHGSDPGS
# measurement-notes: primary screen, population patch clamp on CHO cells stably expressing hERG; higher = less effect of the substance
Hit rate of the full screen: of about 310,000 compounds, about 14,000 (4.5%) showed an effect of 50% or more. Effects have a minus sign here. This excerpt belongs to a sample that is enriched for strong results.
Quick rule: hERG current change (%, negative = inhibition) at 10uM of at least -30% means TRUE, below that means FALSE.

[
  {
    "compound": "Cc1cc(=O)oc2cc(OCC(=O)OCC(=O)N(CCC#N)c3ccccc3)ccc12",
    "target-entity": "human ether-à-go-go-related gene (hERG) potassium channel (human, UniProt Q12809)",
    "class-assignment": "TRUE"
  },
  {
    "compound": "O=C(c1ccc2c(c1)OCO2)C1CCCN(Cc2ccc3nsnc3c2)C1 (stereo not shown)",
    "target-entity": "human ether-à-go-go-related gene (hERG) potassium channel (human, UniProt Q12809)",
    "class-assignment": "FALSE"
  },
  {
    "compound": "Cc1ccc(C(=O)c2coc3ccc(O)c(Cl)c23)cc1",
    "target-entity": "human ether-à-go-go-related gene (hERG) potassium channel (human, UniProt Q12809)",
    "class-assignment": "TRUE"
  },
  {
    "compound": "O=C(c1ccc2c(c1)OCO2)C1CCCN(CC2CCCCC2)C1 (stereo not shown)",
    "target-entity": "human ether-à-go-go-related gene (hERG) potassium channel (human, UniProt Q12809)",
    "class-assignment": "FALSE"
  },
  {
    "compound": "Cc1ccc(C(=O)c2coc3ccc(O)cc23)cc1",
    "target-entity": "human ether-à-go-go-related gene (hERG) potassium channel (human, UniProt Q12809)",
    "class-assignment": "TRUE"
  },
  {
    "compound": "O=C(c1cccc(Cl)c1)C1CCCN(C(=O)c2ccc3c(c2)OCO3)C1 (stereo not shown)",
    "target-entity": "human ether-à-go-go-related gene (hERG) potassium channel (human, UniProt Q12809)",
    "class-assignment": "FALSE"
  },
  {
    "compound": "OCCN1CCN(c2nc(-c3ccccc3)c3cc(Br)ccc3n2)CC1",
    "target-entity": "human ether-à-go-go-related gene (hERG) potassium channel (human, UniProt Q12809)",
    "class-assignment": "FALSE"
  },
  {
    "compound": "Cc1ccc2nc(N3CCN(C=O)CC3)nc(-c3ccccc3)c2c1",
    "target-entity": "human ether-à-go-go-related gene (hERG) potassium channel (human, UniProt Q12809)",
    "class-assignment": "FALSE"
  },
  {
    "compound": "CC(C)(C)CC(C)(C)NC(=O)c1ccc2snnc2c1",
    "target-entity": "human ether-à-go-go-related gene (hERG) potassium channel (human, UniProt Q12809)",
    "class-assignment": "TRUE"
  }
]

Query compound follows.
Q. Hello, I need to know if CCOC(=O)N1CCN(c2nc(-c3ccccc3)c3cc(C)ccc3n2)CC1 has measured hERG current change (%, negative = inhibition) at 10uM not below -30%. Thanks!
A. TRUE
